Test system: MCF7 breast
Test: NCI tumour cell line growth inhibition, 48 h; in the data active means GI50 below about 0.43 µM; inactive means the rest
Classes to choose from: yes = active, no = inactive

Example entries begin here.
| COMPOUND | MEASURED TARGET | CLASS NAME |
| --- | --- | --- |
| CCOC(=O)[C@@H](N)CCC(=O)N[C@@H](CSCc1ccccc1)C(=O)N[C@@H](C(=O)OCC)c1ccccc1 | MCF7 breast | no |
| COc1cc2nc3cc([N+](=O)[O-])ccc3c(NCCCNCCO)c2cc1OC | MCF7 breast | yes |
| COc1cc2c(c(OC)c1OC)-c1ccc(OC)c(=O)cc1[C@@H](NC(=O)c1ccccc1)CC2 | MCF7 breast | yes |

Note: attention shifts to another entry.
Task item: What classification did CNc1ccc(C(=O)CC(O)CCC(C)C2OC(=O)CC(O)CC(=O)CC(O)CC(O)CC(O)CC(O)CC3(O)CC(O)C(C(=O)OC)C(CC(O[C@@H]4O[C@H](C)[C@@H](O)[C@H](N)[C@@H]4O)/C=C/C=C/C=C/C=C/C=C/C=C/C=C/C2C)O3)cc1 (some centres undefined) end up with in this test?
Reply: no
